Where do the numbers come from? From paper PMC8364686.

# PROCEDURE_DETAILS: Plasma pharmacokinetics of BI 187004 after single oral doses (LC–MS/MS)
# CONDITION_DETAILS: male, human, plasma, po, 20 mg
REPORTED_ENDPOINT: AUC(0-inf) (µM·h)
Please give a number only; it is taken to be in µM·h.

For record N#Cc1ccc2c(c1)[C@H]1CCCN(C(=O)c3ccc4[nH]cnc4c3)[C@H]1C2 the listed AUC(0-inf) is 12.4

---

# PROCEDURE_DETAILS: Plasma pharmacokinetics of BI 187004 after single oral doses (LC–MS/MS)
# CONDITION_DETAILS: male, human, plasma, po, 80 mg, BI 187004 plasma concentrations, 80 mg single oral, planned time 1 h, gMean
REPORTED_ENDPOINT: concentration at 1 h (nM)
Please give a number only; it is taken to be in nM.

For record N#Cc1ccc2c(c1)[C@H]1CCCN(C(=O)c3ccc4[nH]cnc4c3)[C@H]1C2 the listed concentration at 1 h is 2120
